biological target: MRSA PK (Staphylococcus aureus); construct: His tag (pET-28a(+) vector) (N); made in house; host or cells: E. coli BL-21 (DE3); test: MRSA PK activity, continuous LDH-coupled assay; format: biochemical, S. aureus (MRSA strain Sanger 252); conditions: read-out: % inhibition at the highest concentration tested (IC50)
Below, each entry is listed with its recorded inhibition at 1 µM.

For the compound shown here, Brc1ccc2[nH]c(-c3cc4ccccc4s3)cc2c1 [Compound 22f] , give the reported inhibition at 1 µM.
42%

Also, Brc1ccc2cc(-c3ccc(-c4cc5ccc(Br)cc5[nH]4)cc3)[nH]c2c1 [Compound 33a, 1,4-bis(6-bromo-1H-indol-2-yl)benzene] please.
54%

Also, Brc1ccc2cc(-c3ccc(-c4cc5ccc(Br)cc5[nH]4)s3)[nH]c2c1 [Compound 33b, 2,5-bis(6-bromo-1H-indol-2-yl)thiophene] please.
28%

Also, O=C(Nc1nc2ccc(Br)cc2s1)c1cccc(Cl)c1O [Compound 83] please.
89%

----------
target: Human M1 PK (Homo sapiens, UniProt P14618); construct: His tag; made in house; host or cells: E. coli BL-21 (DE3); construct a gift of Dr. L. Cantley; experiment: Human PK selectivity, LDH-coupled enzyme assay; format: biochemical; details: at 10 μM; read-out: % Inhibition Human M1
Sequence (P14618 1-531 isoform P14618-2): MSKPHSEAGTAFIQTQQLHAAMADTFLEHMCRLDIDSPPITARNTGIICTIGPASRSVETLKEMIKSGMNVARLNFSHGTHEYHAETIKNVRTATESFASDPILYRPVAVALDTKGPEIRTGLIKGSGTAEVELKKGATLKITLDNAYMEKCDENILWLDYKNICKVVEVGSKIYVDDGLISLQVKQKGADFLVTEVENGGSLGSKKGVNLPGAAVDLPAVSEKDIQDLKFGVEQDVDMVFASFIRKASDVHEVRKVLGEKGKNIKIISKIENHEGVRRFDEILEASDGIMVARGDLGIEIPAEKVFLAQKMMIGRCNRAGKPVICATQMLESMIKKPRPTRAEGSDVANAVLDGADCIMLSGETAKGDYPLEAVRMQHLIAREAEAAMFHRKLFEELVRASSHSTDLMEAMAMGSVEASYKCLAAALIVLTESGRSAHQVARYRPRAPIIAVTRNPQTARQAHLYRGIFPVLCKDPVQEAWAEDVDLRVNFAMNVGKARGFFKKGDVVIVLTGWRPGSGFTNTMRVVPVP
Below, each entry is listed with its recorded inhibition at 10 µM.

CN1CCN(CCn2c(-c3cc4ccc(Br)cc4[nH]3)cc3cc(Br)ccc32)CC1 [Compound 20a] = 3.2%

For the molecule shown here, Brc1ccc2cc(CCc3cc4ccc(Br)cc4[nH]3)[nH]c2c1 [Compound 28a, 1,2-bis(6-bromo-1H-indol-2-yl)ethane] , give the reported inhibition at 10 µM.
9.9%

Also, Brc1ccc2cc(/C=C/c3cc4ccccc4[nH]3)[nH]c2c1 [Compound 27a] please.
16.1%

----------
tested on: S. aureus ATCC 29213; test: In vitro susceptibility, broth microdilution MIC; assay type: cell-based, Staphylococcus aureus; settings: Staphylococcus aureus, ATCC29213, Tables 1-6 and text; minimum concentration to give >98% inhibition of growth; read-out: MIC
Below, each entry is listed with its recorded MIC.

The following compounds have reported results that may help.
Brc1ccc2[nH]c(-c3cc4ccc(Br)cc4[nH]3)cc2c1 [Compound 10c, 5,6-Bibromo-1H,1′H-2,2′-biiindole] = 0.3 µg/mL
Fc1ccc2[nH]c(-c3cc4ccc(Br)cc4[nH]3)cc2c1 [Compound 10e, 6′-Bromo-5-fluoro-1H,1′H-2,2′-biindole] = 0.3 µg/mL
Cn1c(C(=O)Nc2nc3ccc(Br)cc3s2)cc2ccccc21 = > 64 µg/mL
O=C(Cn1c(-c2cc3ccc(Br)cc3[nH]2)cc2cc(Br)ccc21)N1CCOCC1 = > 64 µg/mL
Brc1ccc(-c2cc3ccc(Br)cc3[nH]2)cc1 = > 64 µg/mL
Brc1ccc2cc(-c3ccc(-c4cc5ccc(Br)cc5[nH]4)s3)[nH]c2c1 [Compound 33b, 2,5-bis(6-bromo-1H-indol-2-yl)thiophene] = > 64 µg/mL

# evaluate next
For the compound shown here, Cn1c(-c2cc3ccc(Br)cc3[nH]2)cc2cc(Br)ccc21 [Compound 12a] , give the reported MIC.
> 64 µg/mL

----------
target: MRSA PK (Staphylococcus aureus, UniProt Q6GG09); construct: His tag (pET-28a(+) vector) (N); made in house; host or cells: E. coli BL-21 (DE3); experiment: MRSA PK activity, continuous LDH-coupled assay; format: biochemical, S. aureus (MRSA strain Sanger 252); details: read-out: % Inhibition MRSA PK
Sequence (Q6GG09 whole entry): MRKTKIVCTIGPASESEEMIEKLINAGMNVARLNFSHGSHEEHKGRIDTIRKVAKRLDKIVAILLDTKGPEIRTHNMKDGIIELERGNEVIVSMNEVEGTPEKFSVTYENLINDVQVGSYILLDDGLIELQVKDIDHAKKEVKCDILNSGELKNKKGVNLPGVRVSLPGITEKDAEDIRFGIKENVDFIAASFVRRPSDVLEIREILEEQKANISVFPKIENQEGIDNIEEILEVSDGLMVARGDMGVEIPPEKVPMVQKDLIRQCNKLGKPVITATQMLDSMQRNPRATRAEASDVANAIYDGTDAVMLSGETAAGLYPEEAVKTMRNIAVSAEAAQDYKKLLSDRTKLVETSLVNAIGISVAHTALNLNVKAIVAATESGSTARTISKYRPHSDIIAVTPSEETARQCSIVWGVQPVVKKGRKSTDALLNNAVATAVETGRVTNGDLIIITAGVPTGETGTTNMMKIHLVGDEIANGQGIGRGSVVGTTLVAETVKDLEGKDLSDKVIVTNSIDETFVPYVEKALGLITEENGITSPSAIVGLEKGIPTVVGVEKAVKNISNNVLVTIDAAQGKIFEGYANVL
Below, each entry is listed with its recorded inhibition at 10 µM.

The following compounds have reported results that may help.
Brc1ccc2[nH]c(C#Cc3cc4ccc(Br)cc4[nH]3)cc2c1 [Compound 25c] = 86.3%
Brc1cc2cc(-c3cc4cc(Br)c(Br)cc4[nH]3)[nH]c2cc1Br [Compound 10l] = 97.6%
Brc1ccc2cc(/C=C/c3cc4ccccc4[nH]3)[nH]c2c1 [Compound 27a] = 93.4%

For the compound shown here, Brc1ccc2cc(-c3cc4ccccc4o3)[nH]c2c1 [Compound 22b, 2-(Benzofuran-2-yl)-6-bromo-1H-indole] , give the reported inhibition at 10 µM.
95.9%
